# System: Escherichia coli TOP10
# experiment_description: shrunken log2 fold change of peptide-encoding DNA abundance (4.5 h post-induction vs induction); higher = less antimicrobial activity (less host growth inhibition)
# assay_conditions: time post-induction: 4.5 h; library: site-saturation at positions 5, 18, 19, 20
result_type: shrunken log2 fold change

- sequence_string: "RRIRMRPPRLPRPRPRPCIRPRP"
  result_type: "shrunken log2 fold change"
  observed_result: -0.122
- sequence_string: "RRIRTRPPRLPRPRPRPSHAPRP"
  result_type: "shrunken log2 fold change"
  observed_result: -0.345
- sequence_string: "RRIRLRPPRLPRPRPRPKMMPRP"
  result_type: "shrunken log2 fold change"
  observed_result: -0.167
- sequence_string: "RRIRERPPRLPRPRPRPKMPPRP"
  result_type: "shrunken log2 fold change"
  observed_result: -0.0401
- sequence_string: "RRIRSRPPRLPRPRPRPSNQPRP"
  result_type: "shrunken log2 fold change"
  observed_result: -0.242
- sequence_string: "RRIRVRPPRLPRPRPRPPMCPRP"
  result_type: "shrunken log2 fold change"
  observed_result: 0.0598
- sequence_string: "RRIRFRPPRLPRPRPRPSGLPRP"
  result_type: "shrunken log2 fold change"
  observed_result: -0.237
- sequence_string: "RRIRWRPPRLPRPRPRPFADPRP"
  result_type: "shrunken log2 fold change"
  observed_result: 0.737

###

# Tested on: Escherichia coli TOP10
# experiment_description: shrunken log2 fold change of peptide-encoding DNA abundance (4.5 h post-induction vs induction); higher = less antimicrobial activity (less host growth inhibition)
# assay_conditions: time post-induction: 4.5 h; library: site-saturation at positions 5, 18, 19, 20
result_type: shrunken log2 fold change

- sequence_string: "RRIRMRPPRLPRPRPRPITYPRP"
  observed_result: -0.0199
- sequence_string: "RRIRIRPPRLPRPRPRPMGWPRP"
  observed_result: 0.237
- sequence_string: "RRIRYRPPRLPRPRPRPEDTPRP"
  observed_result: -0.00443
- sequence_string: "RRIRNRPPRLPRPRPRPYFCPRP"
  observed_result: -0.5
- sequence_string: "RRIRYRPPRLPRPRPRPFLTPRP"
  observed_result: -0.871
- sequence_string: "RRIRIRPPRLPRPRPRPGSTPRP"
  observed_result: -0.549
- sequence_string: "RRIRFRPPRLPRPRPRPYAQPRP"
  observed_result: -0.533
- sequence_string: "RRIRFRPPRLPRPRPRPHVMPRP"
  observed_result: -0.288

###

# Test system: Escherichia coli TOP10;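 note: peptides expressed intracellularly from a pBAD plasmid library in pooled LB shake-flask culture, induced with 0.3% L-arabinose, DNA abundance read by NGS, three biological replicates, DESeq2 with apeglm shrinkage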
# experiment_description: shrunken log2 fold change of peptide-encoding DNA abundance (4.5 h post-induction vs induction); higher = less antimicrobial activity (less host growth inhibition)
# assay_conditions: time post-induction: 4.5 h; library: site-saturation at positions 5, 18, 19, 20
Outcome: label 1 for shrunken log2 fold change of at least -0.1; label 0 for anything lower.

- sequence_string: "RRIRCRPPRLPRPRPRPPWSPRP"
  target: "Escherichia coli TOP10"
  label_value: "label 1"
- sequence_string: "RRIRVRPPRLPRPRPRPTVVPRP"
  target: "Escherichia coli TOP10"
  label_value: "label 1"
- sequence_string: "RRIRGRPPRLPRPRPRPWIVPRP"
  target: "Escherichia coli TOP10"
  label_value: "label 1"
- sequence_string: "RRIRFRPPRLPRPRPRPWDKPRP"
  target: "Escherichia coli TOP10"
  label_value: "label 0"
- sequence_string: "RRIRDRPPRLPRPRPRPYHAPRP"
  target: "Escherichia coli TOP10"
  label_value: "label 1"
- sequence_string: "RRIRQRPPRLPRPRPRPPCVPRP"
  target: "Escherichia coli TOP10"
  label_value: "label 1"
- sequence_string: "RRIRSRPPRLPRPRPRPVILPRP"
  target: "Escherichia coli TOP10"
  label_value: "label 1"
- sequence_string: "RRIRIRPPRLPRPRPRPCKVPRP"
  target: "Escherichia coli TOP10"
  label_value: "label 0"
- sequence_string: "RRIRYRPPRLPRPRPRPCVFPRP"
  target: "Escherichia coli TOP10"
  label_value: "label 0"
- sequence_string: "RRIRYRPPRLPRPRPRPGGHPRP"
  target: "Escherichia coli TOP10"
  label_value: "label 0"
- sequence_string: "RRIRKRPPRLPRPRPRPCNAPRP"
  target: "Escherichia coli TOP10"
  label_value: "label 1"
- sequence_string: "RRIRTRPPRLPRPRPRPQCCPRP"
  target: "Escherichia coli TOP10"
  label_value: "label 1"
- sequence_string: "RRIRHRPPRLPRPRPRPTNCPRP"
  target: "Escherichia coli TOP10"
  label_value: "label 0"
- sequence_string: "RRIRQRPPRLPRPRPRPVKWPRP"
  target: "Escherichia coli TOP10"
  label_value: "label 1"
- sequence_string: "RRIRFRPPRLPRPRPRPRVMPRP"
  target: "Escherichia coli TOP10"
  label_value: "label 1"
- sequence_string: "RRIRDRPPRLPRPRPRPIDSPRP"
  target: "Escherichia coli TOP10"
  label_value: "label 1"
- sequence_string: "RRIRYRPPRLPRPRPRPDDTPRP"
  target: "Escherichia coli TOP10"
  label_value: "label 0"
- sequence_string: "RRIRIRPPRLPRPRPRPTYCPRP"
  target: "Escherichia coli TOP10"
  label_value: "label 0"
- sequence_string: "RRIRLRPPRLPRPRPRPLMCPRP"
  target: "Escherichia coli TOP10"
  label_value: "label 0"
- sequence_string: "RRIRLRPPRLPRPRPRPGEIPRP"
  target: "Escherichia coli TOP10"
  label_value: "label 0"
- sequence_string: "RRIRLRPPRLPRPRPRPDPMPRP"
  target: "Escherichia coli TOP10"
  label_value: "label 1"
- sequence_string: "RRIRVRPPRLPRPRPRPWPFPRP"
  target: "Escherichia coli TOP10"
  label_value: "label 1"
- sequence_string: "RRIRYRPPRLPRPRPRPEKQPRP"
  target: "Escherichia coli TOP10"
  label_value: "label 1"
- sequence_string: "RRIRPRPPRLPRPRPRPWWRPRP"
  target: "Escherichia coli TOP10"
  label_value: "label 1"
- sequence_string: "RRIRARPPRLPRPRPRPCHWPRP"
  target: "Escherichia coli TOP10"
  label_value: "label 0"
- sequence_string: "RRIRHRPPRLPRPRPRPATKPRP"
  target: "Escherichia coli TOP10"
  label_value: "label 1"
- sequence_string: "RRIRGRPPRLPRPRPRPLDMPRP"
  target: "Escherichia coli TOP10"
  label_value: "label 1"
- sequence_string: "RRIRTRPPRLPRPRPRPTRKPRP"
  target: "Escherichia coli TOP10"
  label_value: "label 1"
- sequence_string: "RRIRFRPPRLPRPRPRPFEVPRP"
  target: "Escherichia coli TOP10"
  label_value: "label 0"
- sequence_string: "RRIRIRPPRLPRPRPRPLNGPRP"
  target: "Escherichia coli TOP10"
  label_value: "label 1"
- sequence_string: "RRIRCRPPRLPRPRPRPDSGPRP"
  target: "Escherichia coli TOP10"
  label_value: "label 1"
- sequence_string: "RRIRTRPPRLPRPRPRPSDRPRP"
  target: "Escherichia coli TOP10"
  label_value: "label 0"
